# PROTOCOL_DETAILS: reduction of polyQ htt aggregates in cells – imaging, exon1htt(103Q)mCFP cells, high-content imaging, primary screen (AID 483);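 further: compound exposure lasted 3 days before fixation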
# ASSAY_SETUP: exon1htt(103Q)mCFP cell line, aggregate imaging, at 2 µM; stronger effect = higher value
METRIC: inhibition of aggregation (%)

INSERT INTO measurements (compound, scale_unit, recorded_measurement) VALUES
  ('Cc1ccc(-c2noc(COc3ccccc3C)n2)cc1', '%', 12.3),
  ('CC(C)C1N=C2c3ccccc3N=C(SCc3cc(=O)n4ccccc4n3)N2C1=O (stereo not given)', '%', 4.4),
  ('Cc1c(C(=O)N2CCN(c3ccccc3)CC2)sc2ncnc(N3CCN(c4ccccc4)CC3)c12', '%', 9.7),
  ('Cc1ccc(SC(C)c2nc(-c3ccccc3)no2)cc1 (stereo not given)', '%', 8.1),
  ('Cc1oc2cc3c(C(=O)OCCN(C)C)c(C)oc3cc2c1C(=O)OCCN(C)C', '%', -22.9);

----------
# PROTOCOL_DETAILS: reduction of polyQ htt aggregates in cells – imaging, exon1htt(103Q)mCFP cells, high-content imaging, primary screen (AID 483);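 further: compound exposure lasted 3 days before fixation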
# ASSAY_SETUP: exon1htt(103Q)mCFP cell line, aggregate imaging, at 2 µM; stronger effect = higher value
METRIC: inhibition of aggregation (%)

INSERT INTO results (compound, recorded_measurement) VALUES
  ('CCOC(=O)Nc1nnc(-c2ccccc2OC)s1', -8.8),
  ('CCOc1ccc(NC(=O)CSc2nnc(Cc3cccn3C)n2-c2ccc(OC)cc2)cc1', 0.9),
  ('CC(C)C(=O)Nc1ccc(C(=O)NCc2cccnc2)cc1', 10),
  ('Fc1ccc(C(c2nnnn2Cc2ccco2)N2CCN(C3CCCCC3)CC2)cc1 (stereo unspecified)', 11.4),
  ('O=C(O)c1ccc2c(c1)C(=O)N(c1ccc(Cl)cn1)C2=O', 14.8),
  ('Cc1cccc(NC(=O)c2cc(NC(=O)c3ccco3)ccc2N2CCCCC2)c1', -3.7);

----------
# PROTOCOL_DETAILS: reduction of polyQ htt aggregates in cells – imaging, exon1htt(103Q)mCFP cells, high-content imaging, primary screen (AID 483);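 further: compound exposure lasted 3 days before fixation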;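 on nuclei count: percent of the per-plate median nuclei count of sample wells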
# ASSAY_SETUP: exon1htt(103Q)mCFP cell line, aggregate imaging, at 2 µM; measured here: cell count, toxicity
Listed molecules paired with reported nuclei count
METRIC: nuclei count (%)

INSERT INTO measurements (molecule, metric, scale_unit, recorded_measurement) VALUES
  ('Cc1cc2oc(=O)cc(C)c2c(=O)o1', 'nuclei count', '%', 105),
  ('O=C(NC1=NCCS1)c1nc(-c2ccccc2)n(-c2ccccc2)n1', 'nuclei count', '%', 109),
  ('CCOc1cc(NC(=O)c2ccco2)c(OCC)cc1NC(=O)CCC(=O)NCc1cccnc1', 'nuclei count', '%', 97.7),
  ('C=CCc1cccc2cc(C(=O)NCc3cccnc3)c(=O)oc12', 'nuclei count', '%', 101),
  ('Cc1c(C(=O)OC2CCC(C)CC2)[nH]c2c1C(=O)CCC2 (configuration not stated)', 'nuclei count', '%', 81.6),
  ('COC(C)(C)c1cc(C(C)(C)C)nc(N)n1', 'nuclei count', '%', 103),
  ('CCOC(=O)N1CCN(C(=O)c2c(-c3ccccc3)noc2C)CC1', 'nuclei count', '%', 107),
  ('O=S(NCc1ccco1)C12CC3CC(CC(C3)C1)C2 (configuration not stated)', 'nuclei count', '%', 102),
  ('NC(=O)CSc1cn(CCNC(=O)c2cccs2)c2ccccc12', 'nuclei count', '%', 84.8),
  ('O=c1cc(CSc2ccccn2)c2ccccc2[nH]1', 'nuclei count', '%', 74.9),
  ('Cc1cc(NC(=O)CCCN2C(=O)c3cccnc3C2=O)no1', 'nuclei count', '%', 100),
  ('CCCn1cnc2c(cnn2-c2ccc(F)cc2)c1=O', 'nuclei count', '%', 85.6);
